Measured values drawn from patent US7658937B2 for this set.

Tested on: male B. malayi adult worms
Test: Antifilarial activity against male adult worms at 5 ppm (Example 3)
Assay type: cell-based, Brugia malayi
Details: monitored for 20 days
# 100% Mortality of male B. malayi values compiled below
Answer format: numeric, days implied, no suffix.

Examples with their reported 100% Mortality of male B. malayi follow.
# compound, 100% Mortality of male B. malayi (days)
data = [
    ("Cc1cc2c(c(O)c1O)C(=O)c1c(O)cccc1C2=O [Anthraquinone J, 1,2,8-Trihydroxy-3-methyl anthraquinone]", 5),
    ("Cc1c(O)c(O)cc2c1C(=O)c1c(O)cccc1C2=O [Anthraquinone K, 1-Methyl-2,3,8-trihydroxy anthraquinone]", 5),
    ("CCCSc1ccc2nc(NC(=O)OC)[nH]c2c1 [Albendazole, reference compound]", 9),
    ("Cc1cc2c(c(O)c1O)C(=O)c1ccccc1C2=O [Anthraquinone B, 1,2-Dihydroxy-3-methyl anthraquinone]", 6),
]

# input for lookup
Ask: Give 100% Mortality of male B. malayi for the following compound: O=C1c2cc(O)c(O)c(O)c2C(=O)c2cccc(O)c21 [Anthraquinone N, 1,2,3,-5-Tetrahydroxy anthraquinone]
Result: 6
